- System: HCC-2998 colon
- protocol_details: NCI-60 one-dose screen, 48 h (100 = growth as untreated, 0 = no growth, -100 = all killed)
- conditions: 10 µM unless noted
This is part of a sample that, as a whole, favours compounds with a hit. Of some 83,000 tested, about 20% had one in any assay. Activity calls are given as the source filed them. The calls were made as follows: active = growth percent below 10; inactive = the rest.
For each entry below, report its growth value.

Inquiry: State its growth for this molecule: Cc1cc(C)c2nc3nc(C)cc(C)c3c(N)c2c1
Reply text: 10.7% (inactive)

Inquiry: State its growth for this molecule: C=C1c2nc3ccccc3n2C=C(c2ccc(OC)cc2)N1Cc1ccccc1
Reply text: 82.1% (inactive)

Inquiry: State its growth for this molecule: O=[N+]([O-])c1ccc(Nc2nc(NCCN3CCOCC3)ncc2[N+](=O)[O-])cc1
Reply text: 93.4% (inactive)

Inquiry: State its growth for this molecule: C#CCOc1ccc2ncnc(NCc3cccc(NC(=O)CCl)c3)c2c1
Reply text: 99.7% [8.25 µM] (inactive)

Inquiry: State its growth for this molecule: CCOC(=O)n1cc(-c2nonc2-c2cn(C)c3ncccc23)c2cc(F)ccc21
Reply text: 86.4% (inactive)

Inquiry: State its growth for this molecule: Clc1ccc2c(NCCCNc3nc(-n4ccnc4)nc4ccccc34)ccnc2c1
Reply text: 106% (inactive)

Inquiry: State its growth for this molecule: O=C1/C(=C/N2N=C(c3ccc4ccccc4c3)CC2c2ccccc2O)SC(=S)N1c1cccnc1 (stereo unspecified)
Reply text: 28.5% (inactive)

Inquiry: State its growth for this molecule: O=C1c2cc3c(cc2-c2c1c1cc(F)c(F)cc1c(=O)n2CCCn1ccnc1)OCO3
Reply text: 13.5% (inactive)

Inquiry: State its growth for this molecule: CCCOc1cc2ccccc2cc1C(=O)Nc1nc(N)c2c(ccc3nccc32)[nH]1
Reply text: -68.3% (active)

Inquiry: State its growth for this molecule: O=C(Cn1cccc(Nc2ccccc2)c1=O)Nc1ccccc1
Reply text: 109% (inactive)

Inquiry: State its growth for this molecule: COc1cc(-c2nn(-c3ccc(Br)cc3)cc2C(=O)O)ccc1O
Reply text: 108% (inactive)

Inquiry: State its growth for this molecule: Cc1cc(N2CCSCC2)nc(NC2CCCC(Nc3ccnc4cc(Cl)ccc34)C2)n1 (stereo unspecified)
Reply text: -58.3% (active)

Inquiry: State its growth for this molecule: COc1cc(CNc2oc(-c3ccccc3)c(-c3ccccc3)c2C#N)cc(CN2CCN(C)CC2)c1O
Reply text: 37.4% (inactive)

Inquiry: State its growth for this molecule: CCOC(=O)c1csc(NC(=O)COc2cccc(/C=C3\CSc4ccccc4C3=O)c2)n1
Reply text: -31.8% (active)

Inquiry: State its growth for this molecule: COc1ccc(Nc2nc(SC)nc(-c3cccc([N+](=O)[O-])c3)c2C#N)cc1
Reply text: 94.3% (inactive)

Inquiry: State its growth for this molecule: COc1cc(-c2nn(C)nc2-c2cc3ccccc3s2)cc(OC)c1OC
Reply text: 49.4% (inactive)

Inquiry: State its growth for this molecule: COc1cccc(NC(=O)c2sc3nc(C)c(C(C)=O)cc3c2N)c1
Reply text: 54.5% (inactive)

Inquiry: State its growth for this molecule: Cn1nc(N)c2cc([C@@H]3Nc4ccc5[nH]ncc5c4[C@H]4C5CCC(C5)[C@@H]34)ccc21 (stereo partly specified)
Reply text: 18% (inactive)

Inquiry: State its growth for this molecule: O=C(/C=C/C=C/c1ccc2c(c1)OCO2)N/N=C\c1ccc(O)cc1O
Reply text: 38.9% (inactive)

Inquiry: State its growth for this molecule: CN(C)[C@@H]1C(=O)C(C(=O)NCc2nc3[nH]cnc(=S)c3[nH]2)=C(O)[C@@]2(O)C(=O)C3=C(O)c4c(O)cccc4[C@@](C)(O)[C@H]3C[C@@H]12
Reply text: 16.3% (inactive)

Inquiry: State its growth for this molecule: O=C(/C=C/c1cc(CN2CCOCC2)c(O)c2ncccc12)c1cc(CN2CCOCC2)c(O)c2ncccc12
Reply text: 37.2% (inactive)

Inquiry: State its growth for this molecule: CCc1nnc(CNc2ccc(Cl)cc2)o1
Reply text: 97.6% (inactive)

Inquiry: State its growth for this molecule: O=C1/C(=C/c2ccccc2)SC(=S)N1CCc1ccc(O)cc1
Reply text: 107% (inactive)

Inquiry: State its growth for this molecule: CSc1nc(NCCO)c(C#N)c(-c2cccc([N+](=O)[O-])c2)n1
Reply text: 102% (inactive)

Inquiry: State its growth for this molecule: CNc1ccc(-c2cc(=O)oc3ccc(Cl)cc23)cc1
Reply text: 31.6% (inactive)

Inquiry: State its growth for this molecule: CCOC(=O)c1c(CN2CCN(C)CC2)nc2ccc(Cl)cc2c1-c1ccccc1
Reply text: -0.061% (active)

Inquiry: State its growth for this molecule: CCNC(=O)Oc1ccc(/C(=C(\C)c2ccc(Cl)cc2)c2ccc(OCCN(CC)CC)cc2)cc1
Reply text: 51% (inactive)

Inquiry: State its growth for this molecule: COc1ccc(O)c(N=Nc2nccs2)c1
Reply text: 89.4% (inactive)

Inquiry: State its growth for this molecule: CCOc1cc2c(cc1OCC)C(c1cc(OC)c(O)cc1Cl)NCC2 (stereo unspecified)
Reply text: 63.2% (inactive)

Inquiry: State its growth for this molecule: C[n+]1ccccc1/C=C/c1ccc2cccc(O)c2n1
Reply text: 95.2% (inactive)

Inquiry: State its growth for this molecule: C=CC(=O)Nc1cccc(-c2nc(SC)nc(NCCc3ccc(OC)c(OC)c3)c2C#N)c1
Reply text: 87.1% (inactive)

Inquiry: State its growth for this molecule: COc1cc(-c2nn(-c3ccc(C)cc3)cc2C(=O)O)ccc1O
Reply text: 92.5% (inactive)

Inquiry: State its growth for this molecule: COc1cccc(-c2nc3sccn3c2-c2ccnc(NCCNS(=O)(=O)c3ccc(F)cc3)c2)c1
Reply text: 50.1% (inactive)

Inquiry: State its growth for this molecule: CC[C@H]1OC(=O)[C@H](C)[C@@H](O[C@H]2C[C@@](C)(OC)[C@@H](O)[C@H](C)O2)[C@H](C)[C@@H](O[C@@H]2O[C@H](C)C[C@H](N(C)C)[C@H]2O)[C@](C)(O)C[C@H](C)CN(C)[C@H](C)[C@@H](O)[C@]1(C)O
Reply text: 95.9% (inactive)

Inquiry: State its growth for this molecule: CSc1nc(Nc2cccc(NC(=O)CCl)c2)c(C#N)c(-c2cccc([N+](=O)[O-])c2)n1
Reply text: 105% (inactive)

Inquiry: State its growth for this molecule: O=C1/C(=C/C(Cl)=C/c2ccccc2)SC(=S)N1CCc1ccc(O)cc1
Reply text: -68.1% (active)

Inquiry: State its growth for this molecule: CC(C)(C)CC(C)(C)c1ccc(OCCOCC[N+](C)(C)Cc2ccccc2)cc1
Reply text: -32.5% (active)

Inquiry: State its growth for this molecule: CC(C)(O)c1cn(CCCCN2C(=O)C(=O)c3ccccc32)nn1
Reply text: 103% (inactive)

Inquiry: State its growth for this molecule: COc1ccc(-c2cc(Nc3ccnc(N4CCOCC4)n3)on2)cc1
Reply text: 40.4% (inactive)

Inquiry: State its growth for this molecule: Cc1nc2c3c(-c4ccccc4)c(-c4ccccc4)oc3ncn2n1
Reply text: 96.2% (inactive)

Inquiry: State its growth for this molecule: CC(C)c1c(C(=O)c2ccccc2)c(-c2ccccc2)c(-c2ccc(F)cc2)n1CC[C@@H](O)C[C@@H](O)CC(=O)O
Reply text: 85.6% (inactive)
